# Tested on: HEK-CMV-Luc2-Hygro cells
# test details: High-throughput genome-wide siRNA screen and validation screen for luciferase expression
# Assay type: cell-based, human
# conditions used: Table 4; primary screen, 72 h, negative control = 100%
readout: Viable cell density (%)
# unit: % | format: bare number

>  <substance>
189 (GAACAAAAUAGACCUCUUATT; chemistry not given here; listed as Homo sapiens) [compound 189]

>  <Viable cell density (%)>
101.897

$$$$
>  <substance>
194 (CAUCAAGCCCUGUAAGUCUTT; chemistry not given here; listed as Homo sapiens) [compound 194]

>  <Viable cell density (%)>
89.583

$$$$

Next substance, Viable cell density (%) to be filled in.
Prompt: Endpoint output: Viable cell density (%) of 153 (CACUUUCCUGGGUAUUGUATT; chemistry not given here; listed as Homo sapiens) [compound 153] . Value?
Response: 87.831

* * *

# System: T-REx-293-NTSR1-GFP cells
# test details: High-throughput human miRNA mimic library screen, image-based per cell green fluorescence (NTSR1-GFP expression)
# conditions used: per cell green fluorescence intensity; 72 h after transfection plus 24 h tetracycline induction
readout: MAD-based z-score
Kindly provide the number alone.

The following sequences have reported results that may help.
>  <sequence>
AUCGCUGCGGUUGCGAGCGCUGU (listed as RNA, chemistry not given here; listed as Homo sapiens) [miR-639, human miRNA mimic]

>  <MAD-based z-score>
2.4

$$$$
>  <sequence>
UCCGUCUCAGUUACUUUAUAGC (listed as RNA, chemistry not given here; listed as Homo sapiens) [miR-340-3p, human miRNA mimic]

>  <MAD-based z-score>
2.3

$$$$
>  <sequence>
AACUGGCCUACAAAGUCCCAGU (listed as RNA, chemistry not given here; listed as Homo sapiens) [miR-193a-3p, human miRNA mimic]

>  <MAD-based z-score>
2.3

$$$$
>  <sequence>
AGGAGGCAGCGCUCUCAGGAC [miR-650]

>  <MAD-based z-score>
2.5

$$$$
>  <sequence>
AACUGGCCCUCAAAGUCCCGCU (listed as RNA, chemistry not given here; listed as Homo sapiens) [miR-193b-3p, human miRNA mimic]

>  <MAD-based z-score>
2.5

$$$$

Prompt: What value of MAD-based z-score on T-REx-293-NTSR1-GFP cells does ACAGAUUCGAUUCUAGGGGAAU (listed as RNA, chemistry not given here; listed as Homo sapiens) [miR-10b-3p, human miRNA mimic] have?
Response: 2.4

* * *

# Tested on: HEK-CMV-Luc2-Hygro cells
# test details: High-throughput genome-wide siRNA screen and validation screen for luciferase expression
# Format: cell-based, human
# conditions used: Table 4; primary screen, 72 h, negative control = 100%
We'd kindly ask you to apply these Viable cell density (%) classes: range 1: < 60%; range 2: ≥ 60% and < 90%; range 3: ≥ 90%

Would you please look over these solved cases?
>  <substance>
161 (GCAGUGGACAUAGAAGAGATT; chemistry not given here; listed as Homo sapiens) [compound 161]

>  <target desc>
HEK-CMV-Luc2-Hygro cells

>  <label>
range 3

$$$$
>  <substance>
155 (GCCUUGCUCCGAACCUUCATT; chemistry not given here; listed as Homo sapiens) [compound 155]

>  <target desc>
HEK-CMV-Luc2-Hygro cells

>  <label>
range 3

$$$$

Prompt: Into which bin does this substance go? 205 (CUCUGAUUGUCACCUCUUATT; chemistry not given here; listed as Homo sapiens) [compound 205]
Response: range 2

Prompt: Pick a category. Item: 162 (CGAUAUGCUUUUCUACGUUTT; chemistry not given here; listed as Homo sapiens) [compound 162]
Response: range 2

Prompt: Could you place 201 (CCCUGAAGGUUACCUCUUUTT; chemistry not given here; listed as Homo sapiens) [compound 201] in its proper category? Many thanks.
Response: range 2

Prompt: The entry to classify is 115 (AGAUACUGGUAUUGCUCGATT; chemistry not given here; listed as Homo sapiens) [compound 115] ; which class holds it?
Response: range 1

Prompt: Which class holds 203 (GAUUACUUCUUGACUAUCATT; chemistry not given here; listed as Homo sapiens) [compound 203] ?
Response: range 3
